- Assay Procedure: yeast transport mutant growth inhibition pilot in 384-well plates, post-Golgi transport modulator project (AID 636); further: test concentration not given here
- Setup Conditions: absorbance 615 nm, about 18 h, active compounds read high
I'd appreciate it if you could supply inhibition values for the items below.
Please give a number only; it is taken to be in %.

Problem: # input compound: COc1ccc(CCNC(=O)c2c(N)n(CCN3CCOCC3)c3nc4ccccc4nc23)cc1 ; wanted: its inhibition
Result: 3.82

Problem: # input compound: Cc1nn(-c2ccccc2)c2c1CC1(C(=O)N(C)C(=O)N(C)C1=O)C1CCCCN21 (stereo not drawn) ; wanted: its inhibition
Result: -4.86

Problem: # input compound: O=C(CN1C2CCC1CC(O)(c1cccnc1)C2)Nc1ccc2c(c1)OCO2 (stereo not drawn) ; wanted: its inhibition
Result: -6.53

Problem: # input compound: Cc1cc(C)c(C(=O)CN2CCOCC2)c(C)c1 ; wanted: its inhibition
Result: -5.19

Problem: # input compound: Cc1ccc(-c2nc(CS(=O)CC(=O)N3CCC4(CC3)OCCO4)c(C)o2)cc1 (stereo not drawn) ; wanted: its inhibition
Result: -4.42

Problem: # input compound: CC12CCCCC1=[N+]([O-])CN2O (stereo not drawn) ; wanted: its inhibition
Result: -1.33

Problem: # input compound: O=C(Cn1ncc2c3ccccc3n(Cc3ccc(F)cc3)c2c1=O)N1CCC2(CC1)OCCO2 ; wanted: its inhibition
Result: -5.41

Problem: # input compound: C[N+]1(C)[C@@H]2CC(OC(=O)[C@H](CO)c3ccccc3)C[C@H]1[C@@H]1O[C@@H]12 (stereo partly drawn) ; wanted: its inhibition
Result: -2.21

Problem: # input compound: Cc1ccc(OCC(=O)NCCN2CCN(C(=O)COc3ccc(C)cc3)CC2)cc1 ; wanted: its inhibition
Result: -1.76

Problem: # input compound: CC(C)(C)OC(=O)c1c(N)n(Cc2ccco2)c2nc3ccccc3nc12 ; wanted: its inhibition
Result: 0.79

Problem: # input compound: C=C1CC[C@@]2(O)[C@H]3Cc4ccc(O)c5c4[C@@]2(CCN3CC2CC2)[C@H]1O5 ; wanted: its inhibition
Result: -1.43

Problem: # input compound: Cc1cccc(-n2c(O)c(C=NCCCN3CCOCC3)c(=O)[nH]c2=O)c1C ; wanted: its inhibition
Result: 0.8

Problem: # input compound: CCC(C(=O)N1CCC2(CC1)OCCO2)c1ccccc1 (stereo not drawn) ; wanted: its inhibition
Result: -6.4

Problem: # input compound: C[C@H]1OC[C@@H](C[N+](C)(C)C)O1 ; wanted: its inhibition
Result: -1.43

Problem: # input compound: CC(=NCc1cccnc1)c1c(O)n(Cc2ccccc2)c(=O)[nH]c1=O ; wanted: its inhibition
Result: -0.27

Problem: # input compound: C[C@H]1CCCC(=O)CCC/C=C/c2cc(O)cc(O)c2C(=O)O1 ; wanted: its inhibition
Result: -3.47

Problem: # input compound: COP(=O)(OC)C(O)C(Cl)(Cl)Cl (stereo not drawn) ; wanted: its inhibition
Result: -1.56

Problem: # input compound: COc1ccc(C(=O)C(C)(C)NO)cc1 ; wanted: its inhibition
Result: -6.49

Problem: # input compound: OC(CNC1CCCCC1)c1ccccc1 (stereo not drawn) ; wanted: its inhibition
Result: -2.67

Problem: # input compound: CC(C)[C@@]1(NC(=O)[C@@H]2C[C@@H]3c4cccc5[nH]cc(c45)C[C@H]3N(C)C2)O[C@@]2(O)[C@@H]3CCCN3C(=O)[C@H](Cc3ccccc3)N2C1=O ; wanted: its inhibition
Result: -1.56

Problem: # input compound: CCn1c(C)c(C(=O)O)c2cc(OC)ccc21 ; wanted: its inhibition
Result: -3.2

Problem: # input compound: CNP1(NC)=NC(C(F)(F)F)=NC(C(F)(F)F)=N1 ; wanted: its inhibition
Result: -6.99

Problem: # input compound: O=C(Cc1ccccc1)OC(COCc1ccccc1)CN1CCOCC1 (stereo not drawn) ; wanted: its inhibition
Result: -7.47
